Listed compounds paired with reported AC50
Target: PKM2 (Homo sapiens, UniProt P14618)
Sequence (P14618 whole entry): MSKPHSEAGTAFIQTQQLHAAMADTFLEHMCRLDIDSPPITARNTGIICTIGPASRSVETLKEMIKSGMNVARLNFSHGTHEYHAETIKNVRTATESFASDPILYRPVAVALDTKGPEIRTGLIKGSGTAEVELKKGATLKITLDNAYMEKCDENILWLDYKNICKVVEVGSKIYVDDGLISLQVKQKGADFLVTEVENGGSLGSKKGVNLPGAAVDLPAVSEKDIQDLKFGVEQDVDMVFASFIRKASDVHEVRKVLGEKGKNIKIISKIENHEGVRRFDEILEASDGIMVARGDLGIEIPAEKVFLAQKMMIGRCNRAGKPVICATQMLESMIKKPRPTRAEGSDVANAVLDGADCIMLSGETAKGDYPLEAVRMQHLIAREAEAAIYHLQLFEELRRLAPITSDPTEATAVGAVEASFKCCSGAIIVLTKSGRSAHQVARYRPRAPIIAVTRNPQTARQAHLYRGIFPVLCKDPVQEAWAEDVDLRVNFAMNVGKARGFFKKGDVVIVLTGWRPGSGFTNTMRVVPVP
Assay: PKM2 Assay
Type: biochemical
Details: activation of PKM2 enzyme, LDH-coupled, absorbance at 340 nm; read-out: PKM2_AC50

Cc1cc(NS(=O)(=O)c2cncn2-c2ncc(C(F)(F)F)cc2Cl)ccc1Cl; 0.1 to 0.5 µM

[Q] Any idea what AC50 was measured for "COc1cc(NS(=O)(=O)c2cccn2-c2ncc(C(F)(F)F)cc2Cl)cc(C(F)(F)F)c1" ?
[A] 0.5 to 1 µM

[Q] Any idea what AC50 was measured for "O=S(=O)(Nc1cc(F)c(F)c(F)c1)c1cccn1-c1ccnc(Cl)n1" ?
[A] 1 to 10 µM

[Q] Any idea what AC50 was measured for "O=S(=O)(Nc1ccc(F)cc1)c1cncn1-c1ccc(C(F)(F)F)cn1" ?
[A] 1 to 10 µM

[Q] Any idea what AC50 was measured for "COc1ccc(NS(=O)(=O)c2cnn(-c3ccc(C(F)(F)F)cn3)c2)cc1" ?
[A] > 10 µM

[Q] Any idea what AC50 was measured for "CCc1cccc(NS(=O)(=O)c2cncn2-c2ncc(C(F)(F)F)cc2Cl)c1" ?
[A] 0.1 to 0.5 µM

[Q] Any idea what AC50 was measured for "O=S(=O)(Nc1ccc(F)cc1)c1cccn1-c1ccc(C(F)(F)F)cn1" ?
[A] 1 to 10 µM

[Q] Any idea what AC50 was measured for "COc1ccc(NS(=O)(=O)c2cncn2-c2ncc(C(F)(F)F)cc2Cl)cc1" ?
[A] 1 to 10 µM

[Q] Any idea what AC50 was measured for "O=S(=O)(Nc1ccc(F)c(Cl)c1)c1ccnn1-c1cccs1" ?
[A] > 10 µM

[Q] Any idea what AC50 was measured for "Cc1cc(NS(=O)(=O)c2ccnn2-c2cnccn2)ccc1F" ?
[A] 0.1 to 0.5 µM
